Just for reference, patent US20230414637A1 is where these values come from.

# protocol summary: in vitro
# assay setup: human
readout name: viability at 300 uM (%)

compound | readout name | display unit | assay result
O=C(Nc1ccc([N+](=O)[O-])cc1Cl)c1cc(Cl)ccc1O [Niclosamide] | viability at 300 uM | % | 30

----------
# protocol summary: physchem
# assay setup: pH 9.1, aqueous buffer
readout name: solubility (µM)

compound | assay result
O=C(Nc1ccc([N+](=O)[O-])cc1Cl)c1cc(Cl)ccc1O [Niclosamide] | 336

----------
# protocol summary: physchem
# assay setup: 20 °C, pH 9.5, aqueous buffer, kinetic from dmso stock
readout name: solubility kinetic (µM)

compound | assay result
O=C(Nc1ccc([N+](=O)[O-])cc1Cl)c1cc(Cl)ccc1O [Niclosamide] | 3000
